System: HepG2
assay name: cell viability relative to DMSO; higher = less toxic
run parameters: 72 h; 1000 nM

compound	unit of measurement	cell viability
CN(CCCN1c2ccccc2CCc2ccccc21)CC(=O)c1ccc(Cl)cc1 [lofepramine]	%	96.9
CCNC(=O)/C=C/c1cccc(Br)c1 [cinromide]	%	97.5
Cc1cc(N2CCCCC2)nc2ccccc12 [ML204]	%	104
Nc1ccc2cc3ccc(N)cc3nc2c1 [proflavine-hemisulfate]	%	76.2
CC1(COc2ccc(CC3SC(=O)NC3=O)cc2)CCCCC1 (stereo not given) [ciglitazone]	%	108
CCN(CC)CCNC(=O)c1ccc(I)cc1 [I-BZA]	%	102
CC1(C)C(=O)NC2=C1C(=O)C(=O)c1ccccc12 [BVT-948]	%	94.8
COc1cc2c(cc1OC)-c1cc3ccc(OC)c(OC)c3c[n+]1CC2 [palmatine-chloride]	%	105
CC1=C(CCC(=O)O)c2cc3[nH]c(cc4nc(cc5[nH]c(cc1n2)c(C)c5C(C)O)C(C)=C4C(C)O)c(C)c3CCC(=O)O (stereo not given) [hematoporphyrin]	%	99.1
Cc1ccc2c(Br)cc(Br)c(OC(=O)c3ccccc3)c2n1 [broxaldine]	%	93.7

====

Test system: U2OS
assay name: drug sensitivity score (DSS) for viability; higher = more toxic; extreme values may be limits of the assay
run parameters: 72 h
measure name: drug sensitivity score

>>> print(df.to_string())
                                   molecule  readout_value
0  Oc1cc(O)c2c(c1)O[C@H](c1ccc(O)c(O)c1)[C@H](O)[C@H]2c1c(O)cc(O)c2c1O[C@H](c1ccc(O)c(O)c1)[C@H](O)C2              0
1  Cc1ccccc1C(=O)Nc1ccc(C(=O)N2CCCC(N(C)C)c3ccccc32)cc1 (centres undefined)              3
2  CN1CCCN=C1/C=C/c1cccs1 [pyrantel-pamoate]              0
3  COc1cc2nc(N3CCC(N4CCCCC4)CC3)nc(NC3CCCCCC3)c2cc1OC            5.4
4                  CCN(CC)CCNC(=O)c1ccccc1I              0
5  COc1cc2ncnc(Nc3ccc(F)c(Cl)c3)c2cc1NC(=O)/C=C/CN1CCCCC1            3.9
6  Cc1ncc(C)n2nc([C@@H]3C[C@H]3c3nc4c5cccnc5ccn4c3C)nc12              0
7              Oc1cc(Cl)ccc1Oc1ccc(Cl)cc1Cl              0
8       N#Cc1cc2nc(O)c(O)nc2cc1[N+](=O)[O-]              0

====

Test system: HepG2
assay name: cell viability relative to DMSO; higher = less toxic
run parameters: 72 h; 10 nM
// values below are reported cell viability
measure name: cell viability (%)

In [3]: df
Out[3]:
                  compound_structure_string  measured_target  readout_value
0  COc1cc2nc(N3CCC(N4CCCCC4)CC3)nc(NC3CCCCCC3)c2cc1OC            HepG2           93.7
1  COc1cc2ncnc(Nc3ccc(F)c(Cl)c3)c2cc1NC(=O)/C=C/CN1CCCCC1            HepG2           97.8
2  COc1ccc2[nH]c3c(-c4cccc5ccccc45)nccc3c2c1            HepG2            101
3  CC(=O)c1ccc(NS(C)(=O)=O)c(Oc2ccc(F)cc2F)c1            HepG2            107
4  CC[C@@H](C)Nc1cc(C(=O)N[C@H]2C[C@H]3CC[C@@H](C2)N3c2ccc(C(=O)C3CC3)cn2)c(C)cc1C(N)=O            HepG2           93.4
5  COCCOc1cnc2ccn([C@H](C)c3nnc4c(F)cc(-c5cnn(C)c5)cn34)c(=O)c2c1            HepG2            102
6  CC(C)Oc1ccc(-c2cnc3c(-c4ccnc5ccccc45)cnn3c2)cc1            HepG2            103
7  Cc1cnc(NC(=O)Nc2cc(Br)c(C)cc2OC[C@@H]2CNCCO2)cn1            HepG2            104
8   Cc1ccc2c(Br)cc(Br)c(OC(=O)c3ccccc3)c2n1            HepG2           95.5
